# Test target: human PD-1 expressed on cells (human, UniProt Q15116 25-288)
# Sequence (Q15116 25-288): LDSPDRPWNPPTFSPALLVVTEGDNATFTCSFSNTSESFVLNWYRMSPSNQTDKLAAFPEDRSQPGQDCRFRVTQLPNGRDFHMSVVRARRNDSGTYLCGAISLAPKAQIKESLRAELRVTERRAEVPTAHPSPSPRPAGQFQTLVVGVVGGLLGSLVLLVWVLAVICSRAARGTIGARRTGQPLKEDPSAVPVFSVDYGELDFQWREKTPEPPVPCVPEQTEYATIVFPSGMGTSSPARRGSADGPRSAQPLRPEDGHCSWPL
# Assay notes: cell-based or functional assay
Assay metric: IL-2 release in HuT78/PD-1, Top line (pg/mL)

{"Binder": "hu326-2 S84N (antibody, V domains shown, mAb; constant regions not restated (hu326-1 is IgG2 / kappa); Back mutation to murine) VH: QVQLVQSGSELKKPGASVKVSCKASGYTFTNYGMNWVRQAPGQGLEWMGWINNNNGEPTYAQGFRGRFVFSLDTSASTAYLQINSLKTEDTAVYFCARDVMDYWGQGTTVTVSS VL: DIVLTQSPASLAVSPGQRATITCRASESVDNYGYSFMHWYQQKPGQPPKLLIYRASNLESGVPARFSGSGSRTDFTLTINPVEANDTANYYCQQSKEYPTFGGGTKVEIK", "Reading unit": "pg/mL", "Test result": 1020}
{"Binder": "hu326-2 G63D (antibody, V domains shown, mAb; constant regions not restated (hu326-1 is IgG2 / kappa); Back mutation to murine) VH: QVQLVQSGSELKKPGASVKVSCKASGYTFTNYGMNWVRQAPGQGLEWMGWINNNNGEPTYAQDFRGRFVFSLDTSASTAYLQISSLKTEDTAVYFCARDVMDYWGQGTTVTVSS VL: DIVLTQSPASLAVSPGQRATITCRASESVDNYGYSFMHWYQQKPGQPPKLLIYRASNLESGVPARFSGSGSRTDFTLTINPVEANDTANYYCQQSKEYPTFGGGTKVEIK", "Reading unit": "pg/mL", "Test result": 1070}
{"Binder": "hu326-2 S9P (antibody, V domains shown, mAb; constant regions not restated (hu326-1 is IgG2 / kappa); Back mutation to murine) VH: QVQLVQSGPELKKPGASVKVSCKASGYTFTNYGMNWVRQAPGQGLEWMGWINNNNGEPTYAQGFRGRFVFSLDTSASTAYLQISSLKTEDTAVYFCARDVMDYWGQGTTVTVSS VL: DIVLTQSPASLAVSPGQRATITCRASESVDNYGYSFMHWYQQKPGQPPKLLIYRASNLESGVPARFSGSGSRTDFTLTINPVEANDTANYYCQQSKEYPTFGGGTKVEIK", "Reading unit": "pg/mL", "Test result": 1020}
{"Binder": "ch326 (antibody, human IgG2, V domains shown, not shown: a dimerising Fc or GST, domain: Ig kappa C-region; Murine VH and Vκ of mu326 on human IgG2 / kappa) VH: QIQLVQSGPELKKPGETVKISCKASGYTFTNYGMNWVKQAPGKGLKWMGWINNNNGEPTYAEEFKGRFAFSLETSASTAYLQINNLKNEDTATYFCARDVMDYWGQGTSVTVSS VL: DIVLTQSPASLAVSLGQRATISCRASESVDNYGYSFMHWYQQKPGQPPQLLIYRASNLESGIPARFSGSGSRTGFTLTINPVEADDVATYYCQQSKEYPTFGGGTKLEVKR", "Reading unit": "pg/mL", "Test result": 993}
{"Binder": "hu326-1 (antibody, IgG2, V domains shown, not shown: a dimerising Fc or GST, domain: Ig kappa C-region; Initial humanized version, IgG2 / kappa) VH: QVQLVQSGSELKKPGASVKVSCKASGYTFTNYGMNWVRQAPGQGLEWMGWINNNNGEPTYAQGFRGRFVFSLDTSASTAYLQISSLKTEDTAVYFCARDVMDYWGQGTTVTVSS VL: DIVLTQSPASLAVSPGQRATITCRASESVDNYGYSFMHWYQQKPGQPPKLLIYRASNLESGVPARFSGSGSRTDFTLTINPVEANDTANYYCQQSKEYPTFGGGTKVEIKR", "Reading unit": "pg/mL", "Test result": 987}
